B1: glmS ribozyme (parent)
chain: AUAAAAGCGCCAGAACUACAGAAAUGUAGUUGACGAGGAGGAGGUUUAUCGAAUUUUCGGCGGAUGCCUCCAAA

- Variants of: B1
- protocolDetails: self-cleavage kobs at 640 uM GlcN6P; higher = faster cleavage; RNA array
- settings: with glucosamine-6-phosphate
Fewer inactive variants are shown than the library holds.
valueType: self-cleavage kobs at 640 uM GlcN6P (s⁻¹)
# unit: s⁻¹ | format: bare number

Consider the reported self-cleavage kobs at 640 uM GlcN6P for these variants:
>  <seqString>
AUAAAAGCGCCAGAAUUACAGAAAUGUAGUUGACGAGGAGGAGGUGUAUCGAAUUUUCGGCGGAUGCCUCCAAA

>  <unitsSymbol>
s⁻¹

>  <self-cleavage kobs at 640 uM GlcN6P>
0.00131

$$$$
>  <seqString>
AUAAAAGCGCAAGAACUACAGAAAUGUAGUUGACGAGGAGGAGGUUUAUCGAAUUAUCGGCGGAUGCCUCCAAA

>  <unitsSymbol>
s⁻¹

>  <self-cleavage kobs at 640 uM GlcN6P>
3.27e-05

$$$$
>  <seqString>
AUAAAAGCGCCAGAACUACAGAAAUGUAUUGGACGAGGAGGAGGUUGAUCGAAUUUUCGGCGGAUGCCUCAAAA

>  <unitsSymbol>
s⁻¹

>  <self-cleavage kobs at 640 uM GlcN6P>
9.8e-05

$$$$
>  <seqString>
AUAAAAGCGCCAGAACUACAGAAAUGUAGUUGACGAGGAGGAGGUAUAUCGAGUUUUCGGCGGAGGCCUCCAAA

>  <unitsSymbol>
s⁻¹

>  <self-cleavage kobs at 640 uM GlcN6P>
0.000479

$$$$

Entry AUAAAAGCGCCGGAACUACAGAAAUGUAGUUGACGAGGAGGAGGUUUAUCGAAUUAUCGGCGGAUGCCUCCAAA ; self-cleavage kobs at 640 uM GlcN6P = 7.85e-05

Entry AUAAAAGCGCCAGGACUACAGAAAUGUAGUUGACGAGGAGGAGGUUAAUCGAAUUUUCGGCGGAUCCCUCCAAA ; self-cleavage kobs at 640 uM GlcN6P = 0.000364

Entry AUAAAAGAGCCAGAACUACAGAAAUGUAGUUGACGAUGAGGAGGUUUAUCGGAUUUUCGGCGGAUGCCUGCAAA ; self-cleavage kobs at 640 uM GlcN6P = 0.000115

Entry AUAAAAGCGCCAGAUCUACAGAAAUGUAGUUGACGAGGGGGAGGUUUAUCGAAUUUUCGGCGGAUGCCUCCAAA ; self-cleavage kobs at 640 uM GlcN6P = 0.0023

Entry AUAAAAGCGCCAGAACUACAGAAAUGUAGUUGACGAGGAGGAGGUGUAUUGAAUUUUCGGCGGAUGUAGCCAAA ; self-cleavage kobs at 640 uM GlcN6P = 0.00024
